Tested on: Caco-2
Assay: cell viability relative to DMSO; higher = less toxic
Conditions: 72 h; 100 nM
I'd appreciate it if you could supply cell viability values for the items below.
# unit: % | format: bare number

Ask | What does the data say about its cell viability? Entry: `CN1CCN(C2=Cc3ccccc3Oc3ccc(Cl)cc32)CC1`
Reply | 99.7

Ask | What does the data say about its cell viability? Entry: `O=c1c(-c2ccc(O)cc2)coc2c([C@@H]3O[C@H](CO)[C@@H](O)[C@H](O)[C@H]3O)c(O)ccc12`
Reply | 96

Ask | What does the data say about its cell viability? Entry: `O=C1CCC[C@@H]2[C@H]3CCCN4CCC[C@@H](CN12)[C@@H]34`
Reply | 94.9

Ask | What does the data say about its cell viability? Entry: `CCN1C(C)(C)CC(Oc2ccc(C(=O)Nc3ccc(NC(=O)Nc4cc(C(C)(C)C)on4)cc3)nc2)CC1(C)C`
Reply | 100

Ask | What does the data say about its cell viability? Entry: `COc1ccc(Cl)c(Nc2nc3ccccc3nc2NS(=O)(=O)c2cccc(NC(=O)C(C)(C)N)c2)c1`
Reply | 109

Ask | What does the data say about its cell viability? Entry: COC(=O)C1=C(C)NC(C)=C(C(=O)OCCN2CCN(C(c3ccccc3)c3ccccc3)CC2)C1c1cccc([N+](=O)[O-])c1 (stereo not drawn)
Reply | 104

Ask | What does the data say about its cell viability? Entry: `O=C(O)[C@H](O)c1ccccc1`
Reply | 104

Ask | What does the data say about its cell viability? Entry: Cc1ccnc(NC(=O)C(C)c2cccc(C(=O)c3ccccc3)c2)c1 (stereo not drawn)
Reply | 91.7

----------
System: HepG2
Experiment: cell viability relative to DMSO; higher = less toxic
Conditions: 72 h; 1000 nM
reported_endpoint: cell viability (%)
# unit: % | format: bare number

Ask | What does the data say about its cell viability? Entry: `NC(=O)C1=CN([C@@H]2O[C@H](COP(=O)(O)OP(=O)(O)OC[C@H]3O[C@@H](n4cnc5c(N)ncnc54)[C@H](OP(=O)(O)O)[C@@H]3O)[C@@H](O)[C@H]2O)C=CC1`
Reply | 86.2

Ask | What does the data say about its cell viability? Entry: NCc1c[nH]c(=S)n1[C@H]1CCc2c(F)cc(F)cc2C1 [nepicastat]
Reply | 102

Ask | What does the data say about its cell viability? Entry: CCCCOc1cc(CC2CNC(=O)N2)ccc1OC (stereo not given)
Reply | 91.1

Ask | What does the data say about its cell viability? Entry: `CCCCCNC(=N)N/N=C/c1c[nH]c2ccc(OC)cc12`
Reply | 105

Ask | What does the data say about its cell viability? Entry: `COc1ccc2c(NC(=O)Nc3cccc(C(F)(F)F)n3)ccnc2c1`
Reply | 105

Ask | What does the data say about its cell viability? Entry: `CCCn1c(=O)[nH]c(=O)c2nc[nH]c21`
Reply | 95.9

Ask | What does the data say about its cell viability? Entry: `NCC(=O)O`
Reply | 102

Ask | What does the data say about its cell viability? Entry: `O=c1[nH]ccc2cc(OC3CCNCC3)ccc12`
Reply | 112

Ask | What does the data say about its cell viability? Entry: `N#Cc1c(Oc2ccc(F)c(NC(=O)Cc3cccc(C(F)(F)F)c3)c2)ccc2nc(NC(=O)C3CC3)sc12`
Reply | 29

Ask | What does the data say about its cell viability? Entry: `C[N+](C)(C)[C@@H](Cc1c[nH]c(=S)[nH]1)C(=O)O`
Reply | 98.8

----------
I'd appreciate it if you could supply cell viability values for the items below.
Tested on: Vero E6
Assay: cell viability relative to DMSO; higher = less toxic
Conditions: 72 h; 10 nM
# unit: % | format: bare number

Ask | What does the data say about its cell viability? Entry: CCCn1c(=O)[nH]c(=O)c2nc[nH]c21 [enprofylline]
Reply | 98.3

Ask | What does the data say about its cell viability? Entry: O=C(OC(C(F)(F)F)C(F)(F)F)N1CCN(Cc2cccc(Oc3ccccc3)c2)CC1 [JW-642]
Reply | 106

Ask | What does the data say about its cell viability? Entry: CCCN1CCC[C@@H]2Cc3nc(N)ncc3C[C@H]21 [quinelorane]
Reply | 99.6

Ask | What does the data say about its cell viability? Entry: CC(C)Cn1cnc2c1c(=O)n(C)c(=O)n2C [isbufylline]
Reply | 95.9

Ask | What does the data say about its cell viability? Entry: Cc1ccc(C23CNCC2C3)cc1 (configuration not stated) [bicifadine]
Reply | 93.8

Ask | What does the data say about its cell viability? Entry: COP(=O)(OC)OC(c1ccc(Cl)cc1)P(=O)(OC)OC (configuration not stated) [mifobate]
Reply | 94.5

Ask | What does the data say about its cell viability? Entry: CS(=O)(=O)c1ccc([C@@H](O)[C@@H](CF)NC(=O)C(Cl)Cl)cc1 [florfenicol]
Reply | 104

----------
Test system: U2OS
Test: cell viability relative to DMSO; higher = less toxic
Settings: 72 h; 10000 nM
I'd appreciate it if you could supply cell viability values for the items below.
# unit: % | format: bare number

Ask | What does the data say about its cell viability? Entry: NCc1c[nH]c(=S)n1[C@H]1CCc2c(F)cc(F)cc2C1 [nepicastat]
Reply | 97.2

Ask | What does the data say about its cell viability? Entry: `C[C@H](NC(=O)Cc1cc(F)cc(F)c1)C(=O)N[C@H](C(=O)OC(C)(C)C)c1ccccc1`
Reply | 101

Ask | What does the data say about its cell viability? Entry: `NC(=O)c1cn([C@@H]2O[C@H](CO)[C@@H](O)[C@H]2O)c2ncnc(N)c2c1=O`
Reply | 0.9

Ask | What does the data say about its cell viability? Entry: Oc1ccc(C2CNCCc3c2cc(O)c(O)c3Cl)cc1 (stereo unspecified)
Reply | 103

Ask | What does the data say about its cell viability? Entry: `O=[N+]([O-])c1cn2c(n1)OC[C@@H](OCc1ccc(-c3ccc(OC(F)(F)F)cc3)nc1)C2`
Reply | 98.8

Ask | What does the data say about its cell viability? Entry: O=C(NCNC(=O)NC1C(=O)NC(=O)N1CO)NC1C(=O)NC(=O)N1CO (stereo unspecified)
Reply | 102

Ask | What does the data say about its cell viability? Entry: `COc1c(O)cc2c(c1O)[C@@H]1O[C@H](CO)[C@@H](O)[C@H](O)[C@H]1OC2=O`
Reply | 97.5

Ask | What does the data say about its cell viability? Entry: `C[C@]12CCC(=O)C(O)=C1CC[C@@H]1[C@@H]2CC[C@]2(C)C(=O)CC[C@@H]12`
Reply | 105

Ask | What does the data say about its cell viability? Entry: `CN[C@H]1CN(c2ccc3c(=O)c(C(=O)O)cn(-c4nccs4)c3n2)C[C@@H]1OC`
Reply | 38.3

Ask | What does the data say about its cell viability? Entry: `CCCn1c(=O)[nH]c(=O)c2nc[nH]c21`
Reply | 104

Ask | What does the data say about its cell viability? Entry: `NC(=O)c1cnc(N[C@@H]2CCCC[C@@H]2N)nc1Nc1cccc(-n2nccn2)c1`
Reply | 46.1

Ask | What does the data say about its cell viability? Entry: `COc1cc(C(C)=O)ccc1O`
Reply | 98.2

Ask | What does the data say about its cell viability? Entry: COC(=O)C1=C(C)NC(C)=C(C(=O)OCC(C)C)C1c1ccccc1[N+](=O)[O-] (stereo unspecified)
Reply | 51.1

Ask | What does the data say about its cell viability? Entry: `CCCC[C@H](NC(=O)[C@@H]1[C@@H]2[C@H](CN1C(=O)[C@@H](NC(=O)NC1(CS(=O)(=O)C(C)(C)C)CCCCC1)C(C)(C)C)C2(C)C)C(=O)C(=O)NC1CC1`
Reply | 97.1

Ask | What does the data say about its cell viability? Entry: `CS(=O)(=O)c1ccc(Oc2cc(F)cc(C#N)c2)c2c1[C@H](O)C(F)(F)C2`
Reply | 99.4

Ask | What does the data say about its cell viability? Entry: `OB1OCc2cc(Cl)ccc21`
Reply | 98.7

Ask | What does the data say about its cell viability? Entry: COc1cc(C[C@@H](CO[C@@H]2O[C@H](CO)[C@@H](O)[C@H](O)[C@H]2O)[C@H](CO[C@@H]2O[C@H](CO)[C@@H](O)[C@H](O)[C@H]2O)Cc2ccc(O)c(OC)c2)ccc1O [secoisolariciresinol-diglucoside]
Reply | 97.9

Ask | What does the data say about its cell viability? Entry: `COc1ccc(CCNCc2ccc(OCc3ccc(Cl)nc3)c(OC)c2)cc1OC`
Reply | 95.2

Ask | What does the data say about its cell viability? Entry: `COc1ccc(Cl)c(Nc2nc3ccccc3nc2NS(=O)(=O)c2cccc(NC(=O)C(C)(C)N)c2)c1`
Reply | 81.4

Ask | What does the data say about its cell viability? Entry: `N#Cc1c[nH]c2c(C(=O)N3CCN(CCc4ccc(F)cc4)CC3)cccc12`
Reply | 100

Ask | What does the data say about its cell viability? Entry: `CN1CCN(C2=Cc3ccccc3Oc3ccc(Cl)cc32)CC1`
Reply | 90.1

Ask | What does the data say about its cell viability? Entry: `CC(C)(C)c1cc(/C=C(\C#N)C(N)=S)cc(C(C)(C)C)c1O`
Reply | 65.7

Ask | What does the data say about its cell viability? Entry: `CCCc1c(OCCCCc2nnn[nH]2)ccc(C(C)=O)c1O`
Reply | 99.6

Ask | What does the data say about its cell viability? Entry: `Cn1cnc2c(NCc3ccccc3)nc(NCCO)nc21`
Reply | 108

Ask | What does the data say about its cell viability? Entry: CCC(C/C=C/c1ccccc1)(c1ccccc1)N(C)CC1CC1 (stereo unspecified)
Reply | 102

Ask | What does the data say about its cell viability? Entry: CC(SC(=O)c1cccs1)C(=O)NCC(=O)O (stereo unspecified)
Reply | 97.1

Ask | What does the data say about its cell viability? Entry: `COc1ccc(CCC(=O)Nc2nc3ccc(Cl)cc3s2)cc1OC`
Reply | 96.3

Ask | What does the data say about its cell viability? Entry: `CCN1/C(=C/C(C)=O)Sc2ccc(OC)cc21`
Reply | 102

Ask | What does the data say about its cell viability? Entry: CC(=O)N(CC(O)CO)c1c(I)c(C(=O)NCCO)c(I)c(C(=O)NCC(O)CO)c1I (stereo unspecified)
Reply | 102

Ask | What does the data say about its cell viability? Entry: `CCc1cn([C@H]2C[C@H](O)[C@@H](CO)O2)c(=O)[nH]c1=O`
Reply | 95.3

Ask | What does the data say about its cell viability? Entry: `Cc1[nH]c2ccccc2c1CCNC(=O)c1cccs1`
Reply | 93.2
